TARGET DESC: kappa opioid receptor (Homo sapiens, UniProt P41145)
Sequence (P41145 whole entry): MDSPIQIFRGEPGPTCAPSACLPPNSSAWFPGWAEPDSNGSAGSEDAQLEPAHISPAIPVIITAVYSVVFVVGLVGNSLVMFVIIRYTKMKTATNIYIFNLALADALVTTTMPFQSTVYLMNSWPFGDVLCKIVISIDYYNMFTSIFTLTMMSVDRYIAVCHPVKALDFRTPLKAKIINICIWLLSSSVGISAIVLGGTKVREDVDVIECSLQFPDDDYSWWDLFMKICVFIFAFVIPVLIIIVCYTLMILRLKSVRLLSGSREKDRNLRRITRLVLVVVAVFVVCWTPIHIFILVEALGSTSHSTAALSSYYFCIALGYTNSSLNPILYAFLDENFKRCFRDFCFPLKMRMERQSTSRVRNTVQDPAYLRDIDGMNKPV
MEASUREMENT NOTES: biochemical
Type: binding
RUN CONDITIONS: read-out: Ki
QUANTITY: pKi
As a rule, pKi stands for the negative log10 of the concentration, concentration in M.

CC[C@@H]1CN2CC[C@@]3(O)C(=Nc4cccc(OC)c43)[C@@H]2C[C@@H]1/C(=C\OC)C(=O)OC [Compound 7, 7-Hydroxymitragynine]
6.49

Continue with the next compound.
INPUT: Fill in: pKi of CC[C@H]1CN2CCc3c([nH]c4cccc(OC)c34)[C@@H]2C[C@@H]1/C(=C\OC)C(=O)OC is ___
OUTPUT: 5.44
